- Tested on: MS2 coat protein
- Experiment Summary: apparent Kd, MS2 coat protein; higher = weaker binding; RNA-MaP array; FMN 200 µM where present
- Assay Setup: ligand present: flavin mononucleotide; designed as: ON switch for flavin mononucleotide
Readings of apparent Kd for the listed sequences
Quantity: apparent Kd (nM)

In [3]: df
Out[3]:
                            sequence_record  endpoint_result
0  GCGUUCUUGUAGAAGGUACUUUCAACAUCUUAUAAACGCUAGACACAUGAGGAUCACCCAUGUUGUAAGGAUAUACAUGAACGC             10.9
1  UUACUCAUGUAAGGAUAUGCAGUCGUUUCGGCUGCAGAAGGUACUAUAAUACAUGAGGAUCACCCAUGUCUUUUUAAUUUUUAC               41
2  GGUUACAUCGGAGGAUAUCAUGUAAAUACAUGAGGAUCACCCAUGUCGAUGGAGACAUCGGAGAUUGAGAAGGCCGAUGUACCG             7.97
3  CGUGUCGCAUGAGGAUAUGGUCAGCUUUGCUGACCAGAAGGCAUGUCAAUAGACAUGAGGAUCACCCAUGUAGUAAAGACACGA             33.9
4  GGAGCUCACAUGAACAUGAGGAUCACCCAUGUAACUAGACAUGAGGAUAUGGAUCCUAAUUGGAUCCAGAAGGCAUGGAGCUCC             27.9

All values here come from the EternaBench riboswitch data.
